Test system: juvenile S. japonicum in mice
Experiment: Treatment of infected mice at juvenile worm stage
Assay type: in vivo, Schistosoma japonicum (ICR mice)
Conditions: 10 mg/kg i.p. daily for 5 days from day 7 post-infection, sacrificed day 42
recordedEndpoint: Number of eggs per gram of liver (Mean ± SD)

Answered examples (5):
COc1ccc(-c2no[n+]([O-])c2CO)cc1 [Compound 4a]    4,258.9 ± 1,910.0 (P > 0.05^**)
C[C@@H]1CC[C@H]2[C@@H](C)C(=O)O[C@@H]3O[C@@]4(C)CC[C@@H]1[C@]32OO4 [AS, artemisinin, reference compound]    2,932.2 ± 1,149.3
N#Cc1c(-c2ccc(OC/C=C/CBr)cc2)no[n+]1[O-] [Compound 16]    4,054.5 ± 1,322.1 (P > 0.05^**)
N#Cc1c(-c2ccc(OCCCBr)cc2)no[n+]1[O-] [Compound 13]    3,808.9 ± 1,288.9 (P > 0.05^**)
C#CCOc1ccc(-c2no[n+]([O-])c2C#N)cc1 [Compound 20]    7,767.5 ± 2,676.6 (P < 0.05^**)

Ask | Report measured Number of eggs per gram of liver (Mean ± SD) on juvenile S. japonicum in mice; entry: N#Cc1c(-c2ccc(Br)cc2)no[n+]1[O-] [Compound 7c]
Reply | 3,859.4 ± 3,749.4 (P > 0.05^**)

Ask | Please report the measured Number of eggs per gram of liver (Mean ± SD) for Cc1ccc(-c2no[n+]([O-])c2CO)cc1 [Compound 4b] tested on juvenile S. japonicum in mice.
Reply | 8,669.2 ± 2,255.8 (P < 0.05^**)

* * *

Tested on: juvenile S. japonicum
Experiment: microbe, parasite or virus in culture
Assay type: cell-based
Conditions: Schistosoma japonicum; juvenile worms, 5 μM, 24 h; read-out: Killing activity 24hr
Some compounds, each annotated with its measured killing at 5 µM.
Numeric answer only, unit % assumed.

C#CCOc1ccc(-c2no[n+]([O-])c2C#N)cc1    20
N#Cc1c(-c2ccc(COc3ccccc3)cc2)no[n+]1[O-]    9
N#Cc1c(-c2ccc(COc3ccc(C=O)cc3)cc2)no[n+]1[O-]    48.9
N#Cc1c(-c2ccc(CBr)cc2)no[n+]1[O-]    18.6
N#Cc1c(-c2ccc(OC/C=C/CBr)cc2)no[n+]1[O-]    16.1
N#Cc1c(-c2ccc(OCCBr)cc2)no[n+]1[O-]    16.4

Ask | Given the compound "Cc1ccc(-c2no[n+]([O-])c2C#N)cc1" , write its reported killing at 5 µM.
Reply | 21.1

Ask | For "N#Cc1c(-c2ccc(OCc3ccccc3)cc2)no[n+]1[O-]" , write its killing at 5 µM.
Reply | 12.5

Ask | Assign killing at 5 µM to the following record: "COc1ccc(-c2no[n+]([O-])c2CO)cc1"
Reply | 36.2

Ask | Supply killing at 5 µM value. Item: "N#Cc1c(-c2ccc(COc3ccc4ccccc4c3C=O)cc2)no[n+]1[O-]"
Reply | 14.9

Ask | Tell us which killing at 5 µM value is on record for "N#Cc1c(-c2ccc(Br)cc2)no[n+]1[O-]"
Reply | 100

Ask | Report killing at 5 µM, nothing else, for this compound: "N#Cc1c(-c2ccc(OCCCBr)cc2)no[n+]1[O-]"
Reply | 14.2

Ask | Complete the entry with killing at 5 µM for "N#Cc1c(-c2ccc(COc3cc(=O)oc4ccccc34)cc2)no[n+]1[O-]"
Reply | 30

Ask | Give the reported killing at 5 µM for this compound. "Cc1ccc(-c2no[n+]([O-])c2CO)cc1"
Reply | 42.9

Ask | Return reported killing at 5 µM. Input compound: "Cc1ccc2cccc(OCc3ccc(-c4no[n+]([O-])c4C#N)cc3)c2n1"
Reply | 14.8

Ask | Item "N#Cc1c(-c2ccc(OCC(=O)c3ccccc3)cc2)no[n+]1[O-]" : provide killing at 5 µM
Reply | 29.2

Ask | Please supply the value of reported killing at 5 µM for the item "N#Cc1c(-c2ccc(OCCCCBr)cc2)no[n+]1[O-]"
Reply | 26.4

Ask | Fill in killing at 5 µM for record "N#Cc1c(-c2ccc(O)cc2)no[n+]1[O-]"
Reply | 12.8

* * *

Item-by-item account of Number of eggs per gram of liver (Mean ± SD)
Tested on: adult S. japonicum in mice
Assay: Treatment of infected mice at adult worm stage
Assay type: in vivo, Schistosoma japonicum (ICR mice)
Details: mice, 10 mg/kg i.p. daily for 5 days from day 35 post-infection, sacrificed day 42

N#Cc1c(-c2ccc(OCCCBr)cc2)no[n+]1[O-]    8201.4 ± 2066.0 (P < 0.05^**)

Ask | Respond only with Number of eggs per gram of liver (Mean ± SD) recorded for "N#Cc1c(-c2ccc(OC/C=C/CBr)cc2)no[n+]1[O-]"
Reply | 6424.1 ± 1193.4 (P < 0.05^**)

Ask | Please look at this compound and report its Number of eggs per gram of liver (Mean ± SD): "C#CCOc1ccc(-c2no[n+]([O-])c2C#N)cc1"
Reply | 10094.7 ± 1691.0 (P < 0.05^**)

Ask | Identify the reported Number of eggs per gram of liver (Mean ± SD) for the following entry. "N#Cc1c(-c2ccc(Br)cc2)no[n+]1[O-]"
Reply | 7213.0 ± 2658.0 (P < 0.05^**)

Ask | Recall and state the measured Number of eggs per gram of liver (Mean ± SD) for O=C(C1CCCCC1)N1CC(=O)N2CCc3ccccc3C2C1 (stereo not shown) [PZQ, praziquantel, reference compound] .
Reply | 3721.5 ± 1600.6

Ask | For the compound "Cc1ccc(-c2no[n+]([O-])c2CO)cc1" , give its measured Number of eggs per gram of liver (Mean ± SD) value.
Reply | 7007.8 ± 2420.2 (P < 0.05^**)

Ask | For the compound "COc1ccc(-c2no[n+]([O-])c2CO)cc1" , give its measured Number of eggs per gram of liver (Mean ± SD) value.
Reply | 7730.8 ± 1457.8 (P < 0.05^**)

* * *

Tested on: adult S. japonicum
Experiment: microbe, parasite or virus in culture
Format: cell-based
Settings: Schistosoma japonicum; adult worms, 25 μM, 48 h; read-out: Killing activity 48hr
recordedEndpoint: killing at 25 µM (%)
Report the figure in % without appending any unit label.

Below, each entry is followed by its recorded killing at 25 µM result.
C#CCOc1ccc(-c2no[n+]([O-])c2C#N)cc1    100
N#Cc1c(-c2ccc(OCCCBr)cc2)no[n+]1[O-]    100

Ask | In one line, give reported killing at 25 µM of the entry "Cc1ccc(-c2no[n+]([O-])c2CO)cc1" .
Reply | 81.8

Ask | Identify killing at 25 µM associated with the compound "N#Cc1c(-c2ccc(OC/C=C/CBr)cc2)no[n+]1[O-]"
Reply | 75

Ask | Give the reported value of killing at 25 µM for this record: "COc1ccc(-c2no[n+]([O-])c2C#N)cc1"
Reply | 100

* * *

Tested on: adult S. japonicum
Test: microbe, parasite or virus in culture
Type: cell-based
Conditions: Schistosoma japonicum; adult worms, 25 μM, 24 h; read-out: Killing activity 24hr
Label fulfilled when killing at 25 µM is at or above 80%; otherwise label not fulfilled.

Ask | Item Cc1ccc(-c2no[n+]([O-])c2CO)cc1 [Compound 4b] with killing at 25 µM of 80% or above?
Reply | not fulfilled

* * *

Test system: juvenile S. japonicum
Test: microbe, parasite or virus in culture
Format: cell-based
Conditions: Schistosoma japonicum, 24 h, read-out: Mortality of juvenile worms
recordedEndpoint: mortality at 50 µM

Worked examples follow.
Cc1ccc2cccc(OCc3ccc(-c4no[n+]([O-])c4C#N)cc3)c2n1 [Compound 28]    < 30%
N#Cc1c(-c2ccc(O)cc2)no[n+]1[O-] [Compound 8]    < 30%
N#Cc1c(-c2ccc(Br)cc2)no[n+]1[O-] [Compound 7c]    > 70%

Ask | Read the entry N#Cc1c(-c2ccc(OC/C=C/CBr)cc2)no[n+]1[O-] [Compound 16] and write its reported mortality at 50 µM.
Reply | < 30%

Ask | Quote mortality at 50 µM reported for N#Cc1c(-c2ccc(OCCCBr)cc2)no[n+]1[O-] [Compound 13] please.
Reply | < 30%

* * *

Tested on: adult S. japonicum
Test: microbe, parasite or virus in culture
Format: cell-based
Conditions: Schistosoma japonicum; adult worms, 25 μM, 72 h; read-out: Killing activity 72hr
recordedEndpoint: killing at 25 µM (%)
Only the number, expressed in %, is required.

N#Cc1c(-c2ccc(COc3ccc(C=O)cc3)cc2)no[n+]1[O-]    100
N#Cc1c(-c2ccc(COc3ccc4ccccc4c3C=O)cc2)no[n+]1[O-]    75
N#Cc1c(-c2ccc(OCC(=O)c3ccccc3)cc2)no[n+]1[O-]    62.5
Cc1ccc(-c2no[n+]([O-])c2CO)cc1    66.7

Ask | Let me know recorded killing at 25 µM for "N#Cc1c(-c2ccc(OCc3ccccc3)cc2)no[n+]1[O-]" , thanks.
Reply | 100
